Numbers sourced from the supplement of paper PMC6555819.

system: PXR homodimer (NR concentration 270 nM); assay: PBM binding z-score (relative to random genomic background probes); higher = stronger binding; sequences stand for … in GC…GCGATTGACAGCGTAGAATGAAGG
For each of the sequences below, state its PBM binding z-score.
Write no unit; give the number alone.

Item under review: TATACAGGGCCAAAGGCCAGAGTACGAATGTCGA . Reported PBM binding z-score?
-0.0965

Item under review: GCATATAGGTAATACAAGGTGCAAGTCCGATTGT . Reported PBM binding z-score?
0.191

Item under review: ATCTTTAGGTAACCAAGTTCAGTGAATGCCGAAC . Reported PBM binding z-score?
1.53

Item under review: TGAATGAGGTTATAAGAGCAGGGAACGTTGCAAA . Reported PBM binding z-score?
-0.193

Item under review: CCGACTGGGGCAAAAGGTTACCATAAGCCAGCCC . Reported PBM binding z-score?
-0.41

Item under review: ACTCGGAGGACACAGGTCAGAGCTACGCCAGTGA . Reported PBM binding z-score?
-0.155

Item under review: GCTAGTTCGTCAGTAAAAGGTCACACACCGGTCG . Reported PBM binding z-score?
1.64

Item under review: GCTGCTTGGTCAGGTTGGTCAGCTAACGGGTACG . Reported PBM binding z-score?
-0.597

Item under review: GCTAGCAGGCCATTTGGGTCACCCAATGACGGGC . Reported PBM binding z-score?
0.0143

Item under review: ACTATTAGTTGAGACGAGAGCAACCGATAGGTTG . Reported PBM binding z-score?
-0.273

Item under review: GATACAGGGTTAAGGCCAGAGTACGCGTATTGAT . Reported PBM binding z-score?
0.108

Item under review: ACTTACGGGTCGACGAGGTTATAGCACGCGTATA . Reported PBM binding z-score?
0.798

Item under review: TCGAGTAGATTAGGGGCATTCAGAATGGCGTCGA . Reported PBM binding z-score?
-0.306

Item under review: AGAATGCGGTTATACGTAGATCAGGGAAGAAAGT . Reported PBM binding z-score?
-0.318

Item under review: AATACCGGGTCACTAGGCCAGAGTAGGTACGAAT . Reported PBM binding z-score?
-0.108

Item under review: ACTAGTTGGTCAGATGAGGTCACACACAATTCGG . Reported PBM binding z-score?
2.21

Item under review: TCAGACAGGTCAAGGTAACTCAGGTACGCAGTCG . Reported PBM binding z-score?
0.321

Item under review: TTACCAAGGTTAGCTGAGGTCGTTGATCCAACTC . Reported PBM binding z-score?
1.46

Item under review: AGAATGAGGGTATACGTAGATCAGGGAAGAAAGT . Reported PBM binding z-score?
0.655

Item under review: CCTACTGCGCCAAAGGTCATTGATTCCAATGCTC . Reported PBM binding z-score?
2.58

Item under review: TTACCAAGGTTAAGGTCGTTGATCCCTCTGTAGA . Reported PBM binding z-score?
1.3

Item under review: CCTACTGGGCCACGAAAGGACATTGATTCAGTGA . Reported PBM binding z-score?
-0.134

Item under review: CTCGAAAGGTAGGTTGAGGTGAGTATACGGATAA . Reported PBM binding z-score?
-0.116

Item under review: TTGCCTAGGTCATGCGGGCCAGTATAGTGTCGGC . Reported PBM binding z-score?
-0.692

Item under review: AGAATGAGGTTACCAAAGAGCAGGGAAACGCTTG . Reported PBM binding z-score?
-0.21

Item under review: CTCGAAAGGTCGGTTGAGGTGAGTCTACGGATAA . Reported PBM binding z-score?
-0.0836

Item under review: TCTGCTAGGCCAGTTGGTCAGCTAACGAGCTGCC . Reported PBM binding z-score?
-1.82

Item under review: TCATATGGGTAAAGGTGAAAGTCGAACGATATGA . Reported PBM binding z-score?
-0.418

Item under review: CCGACTGGGGCATAAGGTTACAATAAGCCAGCCC . Reported PBM binding z-score?
-0.291

Item under review: CCTGATAGGTCATGGTCAGCTAATCTACAGTATG . Reported PBM binding z-score?
0.473

Item under review: CGTCCAAGGTCAGCAGGTCCGTGAAAGCGACGTG . Reported PBM binding z-score?
0.631

Item under review: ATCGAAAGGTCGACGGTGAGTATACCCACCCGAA . Reported PBM binding z-score?
-0.256

Item under review: ACCTACGGGTCAACGAGGTTATAGCACGCGTATA . Reported PBM binding z-score?
3.27

Item under review: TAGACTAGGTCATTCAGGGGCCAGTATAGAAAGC . Reported PBM binding z-score?
0.176

Item under review: CTACCAAGGTGAACAAGGTCGTTGCTTACTATTC . Reported PBM binding z-score?
1.88

Item under review: CGAACTTGGTCATTGACAGGACAGTGAATAGTAA . Reported PBM binding z-score?
0.147

Item under review: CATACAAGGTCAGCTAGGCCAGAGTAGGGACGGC . Reported PBM binding z-score?
0.612

Item under review: AGTCAAAGTTCAGGACGAGGTGACGTAAAGCACG . Reported PBM binding z-score?
1.23

Item under review: CCTTACGGGTCACTGACAGGTTTTAGCATTTGGA . Reported PBM binding z-score?
-0.502

Item under review: ATATGTAGGTTATATCCGGGTCATTCAGGCTATG . Reported PBM binding z-score?
2.63

Item under review: ATATGTAGGTTACATCCGGGTCATTCACGCTATG . Reported PBM binding z-score?
1.48

Item under review: AATACAGGGTTATCGTAGGCCAGAGTACGCACAG . Reported PBM binding z-score?
-0.0696

Item under review: CTACCAAGGGGAACAAGGTCGTTGATTACTATTC . Reported PBM binding z-score?
1.29

Item under review: CCTAGCAGCCCAATCTGGGTCACTCAAGGCTTGA . Reported PBM binding z-score?
-0.803

Item under review: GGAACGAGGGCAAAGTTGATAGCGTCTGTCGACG . Reported PBM binding z-score?
-0.0837

Item under review: CCTAGTTGGCCAGGAGGTCACACACCGGATATGA . Reported PBM binding z-score?
1.23

Item under review: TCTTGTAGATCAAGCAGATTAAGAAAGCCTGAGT . Reported PBM binding z-score?
-0.000804

Item under review: TCAGACAGGTGATGGTAACTCAGGTACGCAGTCG . Reported PBM binding z-score?
0.496

Item under review: CCTTACGGGTCACCAGGTTATAGCACGACGAGCG . Reported PBM binding z-score?
-0.0319

Item under review: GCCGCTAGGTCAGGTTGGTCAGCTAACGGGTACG . Reported PBM binding z-score?
-0.526

Item under review: TCGATTAGTTGATTAGGGCAACCGAAACAGCGGA . Reported PBM binding z-score?
-0.141
